Data origin, for the record: patent US20240301319A1

- assay_procedure: Odor threshold and odor value of perfuming compounds (Tables 4 to 10)
- details: Table 4, watery note
Classes (Odor Threshold (μg/l air)): bottom end: < 0.0003 μg/l air; midrange: ≥ 0.0003 μg/l air and < 0.003 μg/l air; top end: ≥ 0.003 μg/l air

These solved cases illustrate the format of a correct answer.
CCCCCCCCCCCC=O | midrange
CCCc1ccc2c(c1)OCC(=O)CO2 [7-PROPYL-2H,4H-1,5-BENZODIOXEPIN-3-ONE] | bottom end
CC(C)c1cccc(C(C)CC=O)c1 (racemic) [(+−)-3-(3-ISOPROPYL-1-PHENYL)BUTANAL] | midrange

stdin: # classify by Odor Threshold (μg/l air) band: CC1=CC2CC(C=O)C1CC2C(C)C (centres unmarked)
stdout: bottom end

stdin: Form field 'band' for CC(=O)OC(C)CCC=C(C)CCC=C(C)C (centres unmarked) [1,5,9-TRIMETHYL-4,8-DECADIENYL ACETATE]
stdout: midrange

stdin: Could you place CC(C)=CCCC(C)CCCC(C)C=O (racemic) in its proper category? Many thanks.
stdout: top end

stdin: Which category fits this record: CC(=O)OC/C=C(/C)CCC=C(C)C
stdout: top end

stdin: For the record CCCCCCCCCCC=O , report the class its Odor Threshold (μg/l air) corresponds to.
stdout: midrange

stdin: Pick a category. Item: CC(C)CC1CC(C)(O)CCO1 (racemic)
stdout: top end

stdin: Into which bin does this compound go? CC/C=C\CC/C=C/CO
stdout: bottom end

* * *

- assay_procedure: Volatility of perfuming compounds (Tables 4 to 10), with top/middle/bottom note type
- Format: physicochemical
- details: Table 6, perfuming compounds having a fruity note
quantity: Volatility (μg/l air)
Field: numeric (μg/l air). Do not append units.

CCOC(=O)/C(C)=C/C(C)C [ethyl (2E)-2,4-dimethyl-2-pentenoate] | 1618.37
CCOC(=O)CC(C)=O | 2885.67
CCOC(=O)C1OC1(C)c1ccccc1 (stereo not shown) [ETHYL 2,3-EPDXY-3-PHENYLBUTANOATE] | 12.97
C=CCOC(=O)COC1CCCCC1 [ALLYL (CYCLOHEXYLOXY)ACETATE] | 47.01

Form field Volatility, entry CCC(=O)CC(C)CC (stereo not shown) [5-METHYL-3-HEPTANONE] : 14141.42

Lab note: CC(=O)OC(c1ccccc1)C(Cl)(Cl)Cl (racemic) gave Volatility of 11.96

The recorded Volatility for CCCCC1CCC(=O)O1 (racemic) [(+−)-4-OCTANOLIDE] is 108.41

Lab note: C/C=C(\C)C(=O)OCCCCCC [hexyl (2E)-2-methyl-2-butenoate] gave Volatility of 256.81

Lab book: Volatility of COc1ccc(CCC(C)=O)cc1 [4-(4-METHOXYPHENYL)-2-BUTANONE] noted as 5.58

CCCc1ccc(OC)cc1 [1-METHOXY-4-PROPYLBENZENE] has a reported Volatility of 629.29

* * *

- assay_procedure: Volatility of perfuming compounds (Tables 4 to 10), with top/middle/bottom note type
- Format: physicochemical
- details: Table 10, woody note
- Procedure: In some aspects, the first perfume accord comprises perfuming compounds having a volatility ranging from 70,000 to 100 μg/l in air. In some aspects, perfuming compounds having a volatility ranging from 70,000 to 100 μg/l in air are referred to as “top notes”. In some aspects, the second perfume accord comprises perfuming compounds having a volatility ranging from 99 to 50 μg/l in air. […]
Overview of recorded Volatility for various compounds

# count of solved cases: 10
C[C@H]1[C@@H]2C[C@H](C[C@@]13C=CC(=O)CC3)C2(C)C | 4.14 μg/l air
N#C/C=C/c1ccccc1 [(E)-3-PHENYL-2-PROPENENITRILE] | 66.00 μg/l air
CC1=CCC(C(C)(C)O)CC1 (racemic) [(+−)-ALPHA-TERPINEOL] | 172.78 μg/l air
CC1CC[C@@]2(O1)C(C)(C)CCC[C@@]2(C)O (mixture of isomers) | 84.04 μg/l air
CCCCC(CC)C(=O)OC (racemic) [(+−)-methyl 2-ethylhexanoate] | 6677.64 μg/l air
CC1=CCC(CCC(C)C(C)O)C1(C)C (racemic) | 5.22 μg/l air
CCCCC[C@@H]1C(=O)CC[C@@H]1CC(=O)OC | 1.71 μg/l air
CC1(C)C2C[C@H]3CCC(=O)C=C3[C@@H]1C2 (single isomer, unassigned; (+)) | 4.86 μg/l air
CC1=CCC(/C=C/C(C)C(C)O)C1(C)C (stereo not drawn) | 20.41 μg/l air
CCOC(C)OC1CCCCCCCCCCC1 (racemic) [(+−)-(1-ethoxyethoxy)cyclododecane] | 5.04 μg/l air

Data point: CC(=O)OC1CCC2C(C)(C)CCCC2(C)C1 (stereo not drawn) ; Volatility = 14.41 μg/l air

Per the record, CCCC(O)CC[C@@H]1[C@@H](C)CCCC1(C)C (mixture of isomers) has Volatility of 2.34 μg/l air

Record COC(OC)C(C)(C)CC=C(C)C , field Volatility: 1311.32 μg/l air

Briefly, Volatility measured for CC(=O)/C(C)=C(/C)C(C)C(C)(C)C (racemic) : 659.22 μg/l air

response.value for CC(=O)CCC1=C(C)CCCC1(C)C (field: Volatility) = 63.61 μg/l air

get_value(item= CC(C)(C)C1CCC(=O)CC1 , readout=Volatility) returns 755.28 μg/l air

Record CCC(O)COC1CCCCC1C(C)(C)C (racemic) . Reported Volatility: 205.05 μg/l air

The compound listed as C=C1C2CCC(C)(OCC)C1CCC2(C)C (racemic) shows Volatility equal to 135.00 μg/l air

Sure, the documented Volatility for CC(=O)OCCC1=CCC2CC1C2(C)C (stereo not drawn) is 60.02 μg/l air

The compound listed as C/C=C/C(=O)C1C(C)=CCCC1(C)C (racemic) has a reported Volatility of 110.53 μg/l air

Lab book: Volatility of CO[C@]1(C)CC[C@@]23C[C@@H]1C(C)(C)[C@@H]2CC[C@H]3C (racemic) [(+−)-8-methoxycedrane] noted as 42.22 μg/l air

The recorded Volatility for entry CCC(=O)O[C@H]1C[C@@H]2CC[C@@]1(C)C2(C)C equals 216.42 μg/l air

The measured Volatility associated with CC1(CO)CC1CC1CC2CC2(C)C1(C)C (stereo not drawn) reads 1.74 μg/l air

Entry C/C=C/C(=O)C1=C(C)CCCC1(C)C — recorded Volatility = 81.66 μg/l air

The reported value for C/C=C(\C)C(=O)OCc1ccccc1 [BENZYL (E)-2-METHYL-2-BUTENOATE] in terms of Volatility is 33.88 μg/l air

Query CC(=O)/C(C)=C/C1C(C)=CCCC1(C)C (racemic) yields Volatility of 106.28 μg/l air

For record C/C=C/C(=O)C1=C(C)C=CCC1(C)C the listed Volatility is 91.38 μg/l air

// field: Volatility; key: C[C@@H]1CC[C@H]2C(C)(C)[C@H]3C[C@@]12C[C@@H]1OC(C)(C)O[C@@]13C ; value = 0.00 μg/l air
